# Tested Target: Fc-fusion protein receptor ectodomain of BMPR-IB
# Experiment Notes: SPR (Biacore T100), receptor ectodomain-Fc on protein G chip, kinetic 1:1 fit; measurement 1
Measured Metric: Kd

[[record]]
binder = "human GDF-5 mutant R438K (ligand) APLATRQGKRPSKNLKARCSRKALHVNFKDMGWDDWIIAPLEYEAFHCEGLCEFPLKSHLEPTNHAVIQTLMNSMDPESTPPTCCVPTRLSPISILFIDSANNVVYKQYEDMVVESCGCR"
measured_metric = "Kd"
recorded_value = "0.045 nM"

[[record]]
binder = "recombinant human GDF-5 wild type (ligand) APLATRQGKRPSKNLKARCSRKALHVNFKDMGWDDWIIAPLEYEAFHCEGLCEFPLRSHLEPTNHAVIQTLMNSMDPESTPPTACVPTRLSPISILFIDSANNVVYKQYEDMVVESCGCR"
measured_metric = "Kd"
recorded_value = "0.008 nM"

